System: Escherichia coli
Method: Antibacterial activity against Escherichia coli ATCC 25922 (CO-ADD:GN_001); MIC in CAMBH media using NBS plates, by Resazurin F(560/590)
Assay type: functional
Cond: Concentration 20 uM, ASSAY_TEST Inhibition of Bacterial Growth, detection method Resazurin, Fluorescence (ex560/em590), MEDIA CAMHB, plate type 384well, CORNING #3640, time 18 hr
Measured Endpoint: Inhibition (%)
Expressed in %, but write only the number.

Look up Inhibition for this compound: CC(=O)Oc1ccc(C(c2ccc(OC(C)=O)cc2)c2ccccn2)cc1
15.4

Now the compound Cn1ncc2c(Nc3cccc(Cl)c3)nc(Nc3cccc(Cl)c3)nc21
4.26

Item: COc1cc2oc3cc(C)oc(=O)c3c2cc1OC
8.42

Item: O=C(/C=C/c1ccccc1)CC(c1ccccc1)N1CCOCC1 (stereo unspecified)
-4.09

Let us now turn to O=C(Cn1ccc(=O)[nH]c1=O)Nc1nccs1
10.86

Now consider Oc1ccccc1-n1c(-c2ccccc2)ccc1-c1ccccc1 and answer again.
1.29

// repeat for CN(C)c1nc(Cl)nc2c1nc(Cl)n2C1CCCCO1 (stereo unspecified) and report
0.28

Entry COc1cc(CC(=O)C(=O)O)oc(=O)c1 please
-2.06

Lookup COC(=O)C1(C)Cc2cc(OC(C)=O)c(OC(C)=O)cc2N1 (stereo unspecified)
8.98

Thanks! And O=C(O)c1ccccc1C(=O)Nc1ccccc1[N+](=O)[O-] ?
12.47

Try this compound next: Cc1cc(O)c2c(O)[nH]nc2n1
7.82

Lookup COc1cc(/C=N/N=c2\[nH]c3c(=O)n(C)c(=O)n(C)c3[nH]2)ccc1O
14.34

Queued: Cc1cc(=O)oc2cc(OS(C)(=O)=O)ccc12
13.01

Moving on to the next compound: O=C(Nc1nnc(C(F)(F)F)s1)c1c(F)cccc1F
3.33

Queued: CCOCCc1c(O)nc(SC)nc1O
0.79

Now the compound CCOP(=O)(OCC)/C(C#N)=C/c1ccc([N+](=O)[O-])cc1
3.05

Now consider CCOC(=O)CCC1(C(=O)OC)C(=O)CCCCC/C=C/1C(=O)OC (stereo unspecified) .
-17.88

Lookup Cc1nc(O)c(Cc2ccccc2O)c(-c2ccccc2)n1
10.21

Param item: O=C1c2ccccc2C(=O)c2[nH]cnc21
-19.22

Now consider COc1cccc2nc3cc(C)c(C)cc3nc12 and answer again.
12.65

Next record, please: CN(C)C(=O)OCC1COc2ccccc2O1 (stereo unspecified)
7.79

Also, O=C(NC1(N2CCOCC2)CC1)c1ccc(Cl)cc1 please.
-5.43

Would you kindly repeat that for O=C(/C=C/C(=O)N1CCc2ccccc2C1)N1CCc2ccccc2C1 ?
-3.52

Then CCOc1cc2c(Cl)ncnc2c(OCC)c1OCC ?
3.68

Then c1coc(CNc2[nH]cnc3nncc2-3)c1 ?
11.54

Now this one: Cc1cc(S)nc(S)n1
8.34

---

Tested on: Klebsiella pneumoniae
Cond: Concentration 20 uM; ASSAY_TEST Inhibition of Bacterial Growth; detection method Absorption (OD600); MEDIA CAMHB; plate type 384well; NBS; CORNING #3640; time 18 hr
Description: Antibacterial activity against Klebsiella pneumoniae MDR ATCC 70063 (CO-ADD:GN_003); MIC in CAMBH media using NBS plates, by OD(600)
Measured potencies and affinities stand elsewhere.
Measured Endpoint: Inhibition (%)
The reply should be a number in %, with the unit left off.

Item under review: Cc1cc2nc(-c3ccccn3)c(-c3ccccn3)nc2cc1C . Reported Inhibition?
9.38

Please give the result for CN1C(=O)c2ccccc2Cc2c(NCc3ccccc3)ncnc21 too.
18.62

Next record, please: CC(=O)/C=C(\C)Nc1ccccc1O
26.72

Quick one: Nc1cc([N+](=O)[O-])ccc1Nc1ccc(O)cc1
0.39

Could you do the same for O=C1Cc2cccc(O)c(=O)c2C(=O)O1 , please?
8.59

Now the same for CC(C)c1ncc(CO)n1Cc1c(Cl)cccc1Cl
7.27

Now give it for OC1COC(OCc2ccccc2)C(O)C1O (configuration not stated) too.
4.56

---

Test system: Candida albicans
Cond: 20 µM
Description: Antifungal activity against Candida albicans ATCC 90028 (CO-ADD:FG_001); MIC in YNB media using NBS plates, by OD630
Entries with a potency or affinity are not part of this list.
Field: Inhibition. Provide a value for each of the compounds that follow.
Give the value in % but do not write % after it.

Returns the measured Inhibition for the input compound. Input: COCC(=O)OC1CCn2c1nc1c2C(=O)C(C)=C(NC(C)=O)C1=O (stereo unspecified)
-3.01

How about CCOC(=O)c1[nH]c(CO)c(C(=O)OCC)c1C ?
9.36

Do the same for Nc1ccc2c(c1)Cc1cc(Cl)c(Cl)cc1-2 please
8.7

What do we get for O=C(O)CCNC1CCCCC1 ?
3.1

For c1ccc(-c2nnc(-c3ccccn3)[nH]2)nc1 then?
4.71

Same thing, different compound: CC(C)NCC1CCc2cc(CO)c([N+](=O)[O-])cc2N1 (stereo unspecified)
2.55

---

System: Staphylococcus aureus
Method: Antibacterial activity against Staphylococcus aureus MRSA ATCC 43300 (CO-ADD:GP_020); MIC in CAMBH media using NBS plates, by Resazurin F(560/590)
Format: functional
Cond: Concentration 20 uM, ASSAY_TEST Inhibition of Bacterial Growth, detection method Resazurin, Fluorescence (ex560/em590), MEDIA CAMHB, plate type 384well, CORNING #3640, time 18 hr
Measured Endpoint: Inhibition

Name the reported Inhibition value associated with the compound CCC12CCCN3CCc4c(n(c5ccccc45)C(O)(C(=O)OC)C1)C32 (configuration not stated)
7.39%

Also, COc1ccc(C(=S)N2CCN(c3ccccc3C)CC2)cc1 please.
6.05%

Entry to check: CCOc1nc(OCC)c2cnn(C)c2n1
17.13%

Would you kindly repeat that for CCOCc1cc(O)nc(SC)n1 ?
12.32%

Note, next up: Nc1cc(O)nc2ncnn12
9.25%

Item: CCCCn1cnc2c(S)nc(N)nc21
6.68%

Moving on to the next compound: CN(C)Cc1cc(C(F)(F)F)ccc1C(O)(c1ccccc1)c1ccccc1
9.65%

---

For each of the compounds below, state its Inhibition.
Test system: Escherichia coli
Method: Antibacterial activity against Escherichia coli ATCC 25922 (CO-ADD:GN_001); MIC in CAMBH media using NBS plates, by Resazurin F(560/590)
Format: functional
Cond: Concentration 20 uM, ASSAY_TEST Inhibition of Bacterial Growth, detection method Resazurin, Fluorescence (ex560/em590), MEDIA CAMHB, plate type 384well, CORNING #3640, time 18 hr

Value lookup for Inhibition; key = CCOC(=O)c1c(C)oc(C)c(C(=O)OCC)c1=O
-0.85%

Similarly, Cc1ccc(Nc2nnc(-c3ccc4c(c3)OCO4)o2)c(C)c1 ?
5.86%

What about this compound? Cn1c(CO)cnc1-c1ccccc1
-8.68%

// next record O=c1nc(Oc2ccccc2)nc2ncccn12
27.8%

Also need COc1ccc(Nc2cc(C)nc(N)n2)cc1 , thanks.
-4.32%

Also Cn1c(=O)c2nc(CNc3ccc(C(=O)O)cc3)[nH]c2n(C)c1=O ?
-18.91%

Moving on to CC1(C)CC(=O)C(CC(=O)c2ccccc2)=C(NNC(=N)N)C1
4.18%

What do you have for NC(=O)c1ccccc1NC(=O)COc1ccc(Cl)cc1 ?
9.93%

Please do the same for O=C1c2ccccc2NC(c2cc(Cl)cc(Cl)c2O)N1CCc1ccccn1 (stereo unspecified) as well.
9.13%

Now try CN(C)c1ccc2c(c1)Sc1cc(N(C)C)ccc1N2C(=O)c1ccccc1 .
1.67%

Same read-out for O=C(Nc1cccc([N+](=O)[O-])c1)c1cccc(C(=O)Nc2cccc([N+](=O)[O-])c2)c1 ?
1.98%

---

So I've got a bunch of molecules here, and I need their Inhibition values.
Tested on: Candida albicans
Cond: 20 µM
Results with a measured potency or affinity are listed apart.
Respond with the bare value in %.

Consider the molecule Cn1c(=O)c2nc(N3CCCCC3)[nH]c2n(C)c1=O and give its measured Inhibition.
-1.65

CC(=O)Nc1ccc(OC(=O)Oc2ccc(NC(C)=O)cc2)cc1 ?
5.36

Again, but for c1ccc(NN(Cc2ccncc2)c2ccccc2)cc1
0.97

Another: O=C(NC1(N2CCOCC2)CC1)c1ccc(Cl)cc1
2.83

Proceed to CCCCn1c(OC(=S)N(CC)CC)cc(C)nc1=S
7.15

Moving on to CC1(C)N=C(N)N=C(N)N1c1cccc(CN)c1.CCS(=O)(=O)O
2.57

Moving on to CC(=O)NCC(=O)O.CN(C)CCC1c2ccc(Cl)cc2CCc2cccnc21 (stereo not given) [CLOSIRAMINE ACETURATE]
-2.05

Also O=C(Nc1ccc(F)cc1)OCCOc1ccc(Br)cc1 , if possible.
2.88

Lookup CCC(C)Nc1nc2c(c(=O)n(C)c(=O)n2C)n1C (stereo not given)
3.5

Queued: O=C(Nc1ccc2ccccc2c1)c1cccc(F)c1
9.01

What about this molecule? CCSc1nc(O)cc(O)n1
4.28

# repeat for COc1cc([N+](=O)[O-])ccc1NC(=O)Oc1ccc(NC(C)=O)cc1
0.51

Also Oc1ccccc1/N=C/c1c(O)ccc2ccccc12 ?
52.3

Try this molecule next: CCNc1nc(Cl)nc(-c2cn(-c3ccccc3)c3ccccc23)n1
0.17

And the next one, N#Cc1nnn2c1nc(N)c1c(Cl)cccc12 ?
1.33

Another molecule to check: O=c1nc(Nc2cccc(Cl)c2)oc2cc(Cl)oc(=O)c12
20.4

Also need CCOC(=O)C1C(=O)C(=O)N(C(C)C)C1C(=O)OCC (stereo not given) , thanks.
4.37

Then CCOC(=O)/C(C#N)=C\c1c[nH]c2ccccc12 ?
3.53

Thanks! And CC(C)n1cnc2c(S)ncnc21 ?
2.47

Again, but for COc1ccc(OCC(O)CN2CCN(c3ccc(Cl)cc3)CC2)cc1 (stereo not given)
-0.41

Same thing, different molecule: COc1ccc(/N=N/c2ccc(N)nc2N)cc1
4.94

Repeat with CC(=O)c1cc2c(cc1C)CCCC2(C)C
-0.44

Now give it for O=C(Nc1ccc(F)cc1)OCCOc1ccc([N+](=O)[O-])cc1 too.
4.71

What do you have for Oc1cc(-c2ccc(Cl)cc2)nc2ccccc12 ?
18.1

# repeat for Cc1ccc(C(C)C)cc1NC(=O)Nc1ccc([N+](=O)[O-])cc1
8.72

Check c1ccc2cc(OCCOCCOc3ccc4ccccc4c3)ccc2c1 too.
5.37

Another molecule to look at: CCOC(=O)CC1(C)NC(C(=O)O)C(C)(C)S1 (stereo not given)
3.25

Also [O-][n+]1ccc(CC(O)(C(F)(F)F)C(F)(F)F)cc1 ?
4.37

Check Nc1nnc(S)n1-c1ccc(Cl)cc1 too.
11.3

Query CC(O)c1nc2c(c(=O)n(C)c(=O)n2C)n1C (stereo not given) next
-1.01

Next: O=C(O)c1ccc(O)c(O)c1
-0.18

For O=C(O)Cc1ccc(/N=N/c2c(O)c(C(=O)O)cc3ccccc23)cc1 then?
-4.81

What do you have for CCC1(CC)C(=O)NC(=S)N=C1N ?
7.8

What about CCCCOC(=O)c1cccnc1 ?
1.04

Same read-out for O=[N+]([O-])c1cc2cccnc2c2ncccc12 ?
0.77

Try the molecule N=C(N)Nc1ccc(NC(=N)N)cc1
-1.51

Param item: COc1ccc2c3c([nH]c2c1)[C@H]1C[C@H]2[C@H](C[C@@H](O)[C@H](OC)[C@H]2CO)CN1CC3
-0.63

Check CCN(CC)CCN1c2ccccc2Sc2ccc3ccccc3c21 too.
0.24

Could you do the same for CCCN(CCC)c1ccc(/C=C/c2ccc3cc(OCC)ccc3n2)cc1 , please?
-0.13

Try this molecule next: O=S1(=O)CCC(N(/N=C/c2ccco2)c2ccccc2)C1 (stereo not given)
-2.37

Can you handle COC1C(=O)CCC2(CO2)C1(O)C1(C)OC1CC=C(C)C (stereo not given) next?
9.99

Moving on to CSc1cccc(NC(=O)OC2CCCCCCCCCCC2)c1
2.81

Do the same for c1ccc(CSc2nc3c[nH]cnc-3n2)cc1 please
0.41

Try Brc1ccc(-c2csc(Nc3nc(-c4ccc(Br)cc4)cs3)n2)cc1 next.
3.84

Then what about the molecule COC(=O)Nc1csc2c1NC(=O)CCCC2 ?
1.85

Also need CCOC(=O)c1cc(-c2ccccc2)nc2ccc(C)cc12 , thanks.
9.92

Same for O=c1[nH]cc(Cl)cc1Cl
-0.92

Then COc1ccc2nc3cc(Cl)ccc3c(C#N)c2c1 ?
4.11

Try the molecule CC(C)N(C(=O)c1cccc([N+](=O)[O-])c1)C(C)C
0.26

NC(=N\c1ccc(N)cc1)/C(N)=N/c1ccc(N)cc1 ?
0.22
